- System: 885724-159-R-J1-PDC complex spheroid viability
- assay-notes: Anticancer human tumor 885724-159-R-J1-PDC patient-derived pancreatic adenocarcinoma cell line growth inhibition [POLQ]
- run-conditions: second compound 1 µM; first compound 10 µM; stronger effect = lower value
metric-name: viability, T/C (%)
Lab book: enter the figure in %, no units written.

The cases that follow already have their viability, T/C on record.
compound	viability, T/C, %
CCc1cc2c(N3CCc4c(cc(Cn5ccnc5)cc4-c4cn(C)nc4C(F)(F)F)C3=O)cc(C)nc2c(OC)n1 + COC1C(OC(N)=O)C(O)C(Oc2ccc3c(O)c(NC(=O)c4ccc(O)c(CC=C(C)C)c4)c(=O)oc3c2C)OC1(C)C	71.9
C=CC(=O)N1CCN(c2nc(=O)n(-c3c(C)ccnc3C(C)C)c3nc(-c4c(O)cccc4F)c(F)cc23)C(C)C1 (stereo not given) + COC1C(OC(N)=O)C(O)C(Oc2ccc3c(O)c(NC(=O)c4ccc(O)c(CC=C(C)C)c4)c(=O)oc3c2C)OC1(C)C	83.2
CC1COCCN1c1cc(C2(O)CC3CCC(C2)O3)c2cnn(-c3ccn[nH]3)c2n1 (stereo not given) + Cc1cccc(N(C)C(=O)C2C(O)CCN2c2nc(C)cc(C(F)(F)F)c2C#N)c1	27.1

Kindly note the recorded viability, T/C for CC1COCCN1c1cc(-c2ccnn2C)c2ccnc(-c3ccn[nH]3)c2n1 (stereo not given) + COC1C(OC(N)=O)C(O)C(Oc2ccc3c(O)c(NC(=O)c4ccc(O)c(CC=C(C)C)c4)c(=O)oc3c2C)OC1(C)C , which is 33.5

GET /value?item= COc1cc(C2c3cc4c(cc3C(OC3OC5COC(C)OC5C(O)C3O)C3COC(=O)C23)OCO4)cc(OC)c1O (stereo not given) + Cc1cccc(N(C)C(=O)C2C(O)CCN2c2nc(C)cc(C(F)(F)F)c2C#N)c1 &field=viability, T/C returns 45.4

---

- Test system: 885724-159-R-J1-PDC complex spheroid viability
- assay-notes: Anticancer human tumor 885724-159-R-J1-PDC cell line growth inhibition [POLQ];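 further: spheroids exposed to compounds for 7 days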
- run-conditions: second compound 10 µM; first compound 0.01 µM; stronger effect = lower value
metric-name: viability, T/C (%)
Answer in %, number only, no unit symbol.

Example compounds with recorded viability, T/C:
compound	viability, T/C / %
CC[C@@]1(O)C(=O)OCc2c1cc1n(c2=O)Cc2cc3c(CN(C)C)c(O)ccc3nc2-1 + Nc1ccc(C#CCN(C(=O)Cc2ncc(C(F)(F)F)cc2C(F)(F)F)c2ccc(F)cc2)nn1	98.8
COc1cccc(OCCCN)c1-c1cc(Nc2cnc(C#N)cn2)n[nH]1 + COC1C(OC(N)=O)C(O)C(Oc2ccc3c(O)c(NC(=O)c4ccc(O)c(CC=C(C)C)c4)c(=O)oc3c2C)OC1(C)C	45.4
C=CCn1c(=O)c2cnc(Nc3ccc(N4CCN(C)CC4)cc3)nc2n1-c1cccc(C(C)(C)O)n1 + Cc1cccc(N(C)C(=O)C2C(O)CCN2c2nc(C)cc(C(F)(F)F)c2C#N)c1	84.8
CC[C@@]1(O)C(=O)OCc2c1cc1n(c2=O)Cc2cc3c(CN(C)C)c(O)ccc3nc2-1 + Cc1cccc(N(C)C(=O)C2C(O)CCN2c2nc(C)cc(C(F)(F)F)c2C#N)c1	87.6

We now examine a further compound.
The measured viability, T/C that Cn1ncnc1[C@H]1c2n[nH]c(=O)c3cc(F)cc(c23)N[C@@H]1c1ccc(F)cc1 + Cc1cccc(N(C)C(=O)C2C(O)CCN2c2nc(C)cc(C(F)(F)F)c2C#N)c1 showed for 885724-159-R-J1-PDC complex spheroid viability is 94.4
